subject-of-test: T1, human CDH6 on cells (human, UniProt P55285 54-790)
T1 sequence: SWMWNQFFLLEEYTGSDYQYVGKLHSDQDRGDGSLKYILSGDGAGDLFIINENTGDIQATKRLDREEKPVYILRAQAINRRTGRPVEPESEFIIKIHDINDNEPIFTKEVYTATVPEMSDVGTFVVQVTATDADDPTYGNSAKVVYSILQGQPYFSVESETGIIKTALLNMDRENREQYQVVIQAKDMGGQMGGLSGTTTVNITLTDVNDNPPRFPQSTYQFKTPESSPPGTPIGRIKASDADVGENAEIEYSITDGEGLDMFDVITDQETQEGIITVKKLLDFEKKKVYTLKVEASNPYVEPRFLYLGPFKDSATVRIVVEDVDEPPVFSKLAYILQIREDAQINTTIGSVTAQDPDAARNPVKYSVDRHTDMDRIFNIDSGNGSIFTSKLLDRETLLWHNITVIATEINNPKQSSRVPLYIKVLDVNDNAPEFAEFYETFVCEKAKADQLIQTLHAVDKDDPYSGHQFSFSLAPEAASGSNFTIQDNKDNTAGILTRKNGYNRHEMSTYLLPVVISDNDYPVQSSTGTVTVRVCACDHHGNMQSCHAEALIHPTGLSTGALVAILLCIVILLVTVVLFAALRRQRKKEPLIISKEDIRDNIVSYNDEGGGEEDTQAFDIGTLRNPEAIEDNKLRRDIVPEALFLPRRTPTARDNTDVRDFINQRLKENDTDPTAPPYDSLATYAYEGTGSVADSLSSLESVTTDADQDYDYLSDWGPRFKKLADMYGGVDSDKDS
assay-info: cell-based or functional assay
Below, each entry is listed alongside its reported percent inhibition at 1.22 nM ADC, KNS42 cells.
Write the number in % without appending the unit.

Query: State the recorded percent inhibition at 1.22 nM ADC, KNS42 cells for this entry: NOV0718-SMCC-DM1 (antibody, human IgG1, lambda, V domains shown, SMCC-DM1 on primary amines, sites not stated) VH: QVQLVESGGGLVKPGGSLRLSCAASGFTFNSYALHWVRQAPGKGLEWVGRIKSKTNGGTTDYAAPVKGRFTISRDDSKNTLYLQMNSLKTEDTAVYYCARVDATYSYSGYYYPMDYWGQGTLVTVSS VL: DIELTQPPSVSVSPGQTASITCSGDKIPTYTVHWYQQKPGQAPVLVIYDDNKRPSGIPERFSGSNSGNTATLTISGTQAEDEADYYCQSTASGTVVFGGGTKLTVLG
Result: 3.5

Query: State the recorded percent inhibition at 1.22 nM ADC, KNS42 cells for this entry: NOV0691-SMCC-DM1 (antibody, human IgG1, lambda, V domains shown, SMCC-DM1 on primary amines, sites not stated) VH: QVQLVESGGGLVKPGGSLRLSCAASGFTFSSYALNWVRQAPGKGLEWVGRIKSKTYGGSTDYAAPVKGRFTISRDDSKNTLYLQMNSLKTEDTAVYYCARDRGGYVGFDSWGQGTLVTVSS VL: DIALTQPASVSGSPGQSITISCTGTSSDVGRYNFVSWYQQHPGKAPKLMIYRVSNRPSGVSNRFSGSKSGNTASLTISGLQAEDEADYYCQSWTTYSNVVFGGGTKLTVLG
Result: -9.23

Query: State the recorded percent inhibition at 1.22 nM ADC, KNS42 cells for this entry: NOV0672-SMCC-DM1 (antibody, human IgG1, lambda, V domains shown, SMCC-DM1 on primary amines, sites not stated) VH: QVQLLESGGGLVQPGGSLRLSCAASGFTFNTYGIHWVRQAPGKGLEWVSYIHYSGSSTYYADSVKGRFTISRDNSKNTLYLQMNSLRAEDTAVYYCARHAYGYMDFWGQGTLVTVSS VL: DIALTQPASVSGSPGQSITISCTGTSSDVGAYNYVSWYQQHPGKAPKLMIYGVSKRPSGVSNRFSGSKSGNTASLTISGLQAEDEADYYCQSYDHLLHVVFGGGTKLTVLG
Result: -12.3
